- Test system: AR mRNA
- assay-remarks: Dose-dependent antisense inhibition of human AR in HuVEC cells (electroporation, qRT-PCR RTS3559, IC50)
- Assay type: cell-based
- setup-conditions: 62.5 nM; HuVEC, ~16 h; Table 6
Oligonucleotides are written 5' to 3', each unit as a sugar letter and its base; * is a phosphorothioate linkage, no mark a phosphodiester; rarer units and linkages stand in square brackets, end groups in braces. Plain capitals give the bases only. e = 2'-O-(2-methoxyethyl) (MOE); k = constrained ethyl (cEt); [5mC] = 5-methylcytosine; d = 2'-deoxy (DNA)
Threshold rule: percent inhibition of AR greater than or equal to 40% is Met; below that, Not met.

Please review the entries below; each comes with its answer.
| substance | qualitative-label |
| --- | --- |
| 560071 (eT*eG*eG*eT*eT*dG*dA*dT*dT*dT*dA*dA*dT*dG*dG*eT*eT*eG*e[5mC]*eA) [compound 560071] | Not met |
| 549458 (kG*kT*kT*dG*dA*dT*dT*dT*dA*dA*dT*dG*dG*kT*kT*kG) [compound 549458] | Not met |
| 560099 (kG*kG*kT*dT*dG*dA*dT*dT*dT*dA*dA*dT*dG*kG*kT*kT) [compound 560099] | Not met |
| 549457 (kT*kT*kG*dA*dT*dT*dT*dA*dA*dT*dG*dG*dT*kT*kG*k[5mC]) [compound 549457] | Met |
| 549459 (kA*kT*kG*dG*dT*dT*dG*dA*dT*dT*dT*dA*dA*kT*kG*kG) [compound 549459] | Not met |
| 560100 (antisense kT*kG*kG*dT*dT*dG*dA*dT*dT*dT*dA*dA*dT*kG*kG*kT) [compound 560100] | Not met |

## Task Is the recorded value of percent inhibition of AR equal to or greater than 40% for this substance? 560137 (antisense TTGATTTAATGGTTGC; all C 5-methyl, all phosphorothioate, sugars by position not given here; further chemistry not fully specified) [compound 560137]
## Result Met

---

- Tested on: AR mRNA
- assay-remarks: Dose-dependent antisense inhibition of human AR in HuVEC cells (electroporation, qRT-PCR RTS3559, IC50)
- Type: cell-based
- setup-conditions: Table 31; 750.0 nM, HuVEC, electroporation, approximately 16 hours
Oligonucleotides are written 5' to 3', each unit as a sugar letter and its base; * is a phosphorothioate linkage, no mark a phosphodiester; rarer units and linkages stand in square brackets, end groups in braces. Plain capitals give the bases only. k = constrained ethyl (cEt); [5mC] = 5-methylcytosine; d = 2'-deoxy (DNA)
endpoint: percent inhibition of AR, 750.0 nM
Express the reported value numerically, then name its unit.

| substance | percent inhibition of AR, 750.0 nM |
| --- | --- |
| 583731 (antisense k[5mC]*kG*k[5mC]*dG*d[5mC]*dA*d[5mC]*dG*d[5mC]*dT*d[5mC]*dT*dG*kG*kA*kA) [compound 583731] | 47% |
| 583809 (antisense kT*kG*kT*d[5mC]*d[5mC]*dT*dT*dG*dG*dA*dG*dG*dA*kA*kG*kT) [compound 583809] | 68% |

## Task Look up percent inhibition of AR, 750.0 nM for this substance: 583714 (antisense kT*k[5mC]*k[5mC]*dA*dT*d[5mC]*d[5mC]*dT*dT*dG*dA*dG*d[5mC]*kT*kT*kG) [compound 583714]
## Result 59%

---

I'd appreciate it if you could supply % inhibition values for the items below.
- System: AR mRNA
- assay-remarks: Antisense inhibition of human AR in HuVEC cells, single concentration (electroporation, qRT-PCR RTS3559)
- Format: cell-based
- setup-conditions: 250 nM ASO, ~24 h, Table 7
Oligonucleotides are written 5' to 3', each unit as a sugar letter and its base; * is a phosphorothioate linkage, no mark a phosphodiester; rarer units and linkages stand in square brackets, end groups in braces. Plain capitals give the bases only. e = 2'-O-(2-methoxyethyl) (MOE); k = constrained ethyl (cEt); [5mC] = 5-methylcytosine; d = 2'-deoxy (DNA)
One number for each entry, in %.

Answered examples (5):
| substance | experimental-target | data-value |
| --- | --- | --- |
| 569222 (antisense eT*eT*kG*kA*kT*dT*dT*dA*dA*dT*dG*dG*dT*kT*kG*k[5mC]) [compound 569222] | AR mRNA | 74 |
| 560137 (antisense TTGATTTAATGGTTGC; all C 5-methyl, all phosphorothioate, sugars by position not given here; further chemistry not fully specified) [compound 560137] | AR mRNA | 66 |
| 569216 (antisense eT*kG*kA*kT*dT*dT*dA*dA*dT*dG*dG*dT*kT*kG*k[5mC]*eA) [compound 569216] | AR mRNA | 68 |
| 549457 (kT*kT*kG*dA*dT*dT*dT*dA*dA*dT*dG*dG*dT*kT*kG*k[5mC]) [compound 549457] | AR mRNA | 67 |
| 569213 (antisense kT*kG*kA*dT*dT*dT*dA*dA*dT*dG*dG*dT*kT*kG*k[5mC]*eA) [compound 569213] | AR mRNA | 69 |

## Task Look up % inhibition for this substance: 569228 (antisense eT*eT*kG*kA*kT*dT*dT*dA*dA*dT*dG*dG*kT*kT*kG*e[5mC]) [compound 569228]
## Result 67

---

I'd appreciate it if you could supply percent inhibition of AR, 46.9 nM values for the items below.
- Test system: AR mRNA
- assay-remarks: Dose-dependent antisense inhibition of human AR in HuVEC cells (electroporation, qRT-PCR RTS3559, IC50)
- Format: cell-based
- setup-conditions: Table 35; 46.9 nM, HuVEC, electroporation, approximately 16 hours
Oligonucleotides are written 5' to 3', each unit as a sugar letter and its base; * is a phosphorothioate linkage, no mark a phosphodiester; rarer units and linkages stand in square brackets, end groups in braces. Plain capitals give the bases only. k = constrained ethyl (cEt); [5mC] = 5-methylcytosine; d = 2'-deoxy (DNA)
Numbers only, in %.

| substance | percent inhibition of AR, 46.9 nM, % |
| --- | --- |
| 584183 (kA*k[5mC]*kA*dG*dG*d[5mC]*dT*d[5mC]*dT*dG*dA*d[5mC]*dT*kA*kG*kG; antisense) [compound 584183] | 3 |
| 584111 (kG*kT*kT*dT*dT*d[5mC]*dA*dA*dA*dT*dG*d[5mC]*dA*kG*k[5mC]*k[5mC]; antisense) [compound 584111] | 22 |
| 549458 (kG*kT*kT*dG*dA*dT*dT*dT*dA*dA*dT*dG*dG*kT*kT*kG) [compound 549458] | 13 |
| 584163 (kG*kA*kA*d[5mC]*dA*dT*dT*dA*dT*dT*dA*dG*dG*k[5mC]*kT*kA) [compound 584163] | 19 |
| 584179 (kA*kT*kG*dA*dG*dT*d[5mC]*d[5mC]*dT*d[5mC]*dA*dG*dA*kA*kT*k[5mC]; antisense) [compound 584179] | 1 |

Batch request: percent inhibition of AR, 46.9 nM for each of the following substances.
1. 584180 (kG*kT*kA*dG*dA*dT*dT*d[5mC]*dT*dA*dG*d[5mC]*dT*kT*kT*kG; antisense) [compound 584180]
2. 584148 (k[5mC]*kA*kT*dA*dT*dT*dA*dT*dT*dG*dT*dG*d[5mC]*kT*kG*k[5mC]; antisense) [compound 584148]

## Result
26
16

---

I'd appreciate it if you could supply Liver weight values for the items below.
- setup-conditions: cynomolgus monkey, in vivo, sc, 40 mg/kg
Give bare numbers, in g.

| substance | Liver weight / g |
| --- | --- |
| ISIS 583918: antisense compound targeted to human AR (AGTCGCGACTCTGGTA; 3-10-3 (S)-cEt gapmer, further chemistry not given here) | 60 |
| ISIS 584163: antisense compound targeted to human AR (GAACATTATTAGGCTA; 3-10-3 (S)-cEt gapmer, further chemistry not given here) | 54 |
| TGATTTAATGGTTGCA [ISIS 569236] (cEt/MOE gapmer chemistry, further chemistry not given here) | 56 |
| ISIS 584269: antisense compound targeted to human AR (CCTTATGGATGCTGCT; 3-10-3 (S)-cEt gapmer, further chemistry not given here) | 60 |
| TGATTTAATGGTTGCA [ISIS 569216] (cEt/MOE gapmer chemistry, further chemistry not given here) | 71 |

// below: Liver weight requested for another substance
## Task Look up Liver weight for this substance: ISIS 584468: antisense compound targeted to human AR (CATTGTACTATGCCAG; 3-10-3 (S)-cEt gapmer, further chemistry not given here)
## Result 60

---

I'd appreciate it if you could supply AR mRNA levels (% baseline value) of cells without AR agonist treatment values for the items below.
- Test system: AR mRNA
- assay-remarks: AR mRNA levels in LMR20 cells (with/without DHT or R1881)
- Format: cell-based, human
- setup-conditions: LMR20 cells, no AR agonist, ASO 5.0 μM
Oligonucleotides are written 5' to 3', each unit as a sugar letter and its base; * is a phosphorothioate linkage, no mark a phosphodiester; rarer units and linkages stand in square brackets, end groups in braces. Plain capitals give the bases only. e = 2'-O-(2-methoxyethyl) (MOE); l = locked nucleic acid (LNA); k = constrained ethyl (cEt); [5mC] = 5-methylcytosine; d = 2'-deoxy (DNA)

| substance | data-value |
| --- | --- |
| 569236 (antisense eT*kG*kA*kT*dT*dT*dA*dA*dT*dG*dG*kT*kT*kG*e[5mC]*eA) [compound 569236] | 27 % baseline value |
| 560131 (antisense kT*kT*kG*dA*dT*dT*dT*dA*dA*dT*dG*dG*kT*kT*kG*e[5mC]) [compound 560131] | 17 % baseline value |
| 554221 (ACCAAGTTTCTTCAGC; sugars from the 5' end l3 d10 l3, all phosphorothioate, methylation of C not given here) [compound 554221] | 98 % baseline value |

## Task Look up AR mRNA levels (% baseline value) of cells without AR agonist treatment for this substance: 549458 (kG*kT*kT*dG*dA*dT*dT*dT*dA*dA*dT*dG*dG*kT*kT*kG) [compound 549458]
## Result 25 % baseline value
